experiment: Apparent permeability of the compound; type: ADME; conditions: not told
quantity: Papp (×10⁻⁶ cm/s)
Express your answer in ×10⁻⁶ cm/s, writing the number without its unit.

What does the data say about its Papp? Entry: CN(C)C(=O)[C@H]1C[C@@H]1c1ccc(-c2ncn([11CH3])c2Sc2ccc(Cl)cn2)cc1
27

###

experiment: Binding affinity to FAAH in rhesus monkey cortical homogenates; type: tissue-based, Macaca mulatta
quantity: Kd (nM)
Enter your answer as a number in nM; do not include the unit.

Give its Kd value. Item: [3H]C([3H])([3H])n1cnc(-c2ccc([C@H]3C[C@@H]3C(=O)N(C)C)cc2)c1Sc1ccc(Cl)cn1
1.4

###

compounds and their reported logD
experiment: Lipophilicity, log D of the compound at pH 7.3 by HPLC analysis; format: physicochemical; settings: buffer
Write the value as a bare number.

Look over these answered cases.
>  <chem.smiles>
NC(=O)[C@H]1C[C@@H]1c1ccc(-c2nn(C3CC3)cc2Sc2ccc(Cl)cc2)cc1

>  <logD>
3.8

$$$$
>  <chem.smiles>
CN(CCF)C(=O)[C@H]1C[C@@H]1c1ccc(-c2ncn(C)c2Sc2ccc(Cl)cc2)cc1

>  <logD>
4.3

$$$$
>  <chem.smiles>
Cn1cnc(-c2ccc([C@H]3C[C@@H]3C(=O)NCCF)cc2)c1Sc1ccc(Cl)cc1

>  <logD>
4

$$$$
>  <chem.smiles>
CN(C)C(=O)[C@H]1C[C@@H]1c1ccc(-c2ncn(C)c2Sc2ccc(Cl)cn2)cc1

>  <logD>
3.3

$$$$
>  <chem.smiles>
Cn1cnc(-c2ccc([C@H]3C[C@@H]3C(N)=O)cc2)c1Sc1ccc(Cl)cc1

>  <logD>
3.6

$$$$

Which logD value is on record for Cn1cnc(-c2ccc([C@H]3C[C@@H]3C(N)=O)cc2)c1Sc1ccc(Cl)cn1 ?
2

Quick one: logD of CNC(=O)[C@H]1C[C@@H]1c1ccc(-c2ncn(C)c2Sc2ccc(Cl)cc2)cc1 ?
3.8

// returns reported logD for input CN(C)C(=O)[C@H]1C[C@@H]1c1ccc(-c2ncn(C)c2Sc2ccc(Cl)cc2)cc1
4.2

I would be grateful if you could share the reported logD for CN(CCF)C(=O)[C@H]1C[C@@H]1c1ccc(-c2ncn(C)c2Sc2ccc(Cl)cn2)cc1 .
3.4

Which logD value belongs to [11CH3]n1cc(Sc2ccc(Cl)cc2)c(-c2ccc3ccc(C(N)=O)nc3c2)n1 ?
4.2

So what does the record say about logD for Cn1cnc(-c2ccc([C@H]3C[C@@H]3C(=O)NCCF)cc2)c1Sc1ccc(Cl)cn1 ?
3

Quick check: logD of CNC(=O)[C@H]1C[C@@H]1c1ccc(-c2ncn(C)c2Sc2ccc(Cl)cn2)cc1 ?
2.9

###

Target: Fatty-acid amide hydrolase 1 (Homo sapiens, UniProt O00519)
Sequence (O00519 whole entry): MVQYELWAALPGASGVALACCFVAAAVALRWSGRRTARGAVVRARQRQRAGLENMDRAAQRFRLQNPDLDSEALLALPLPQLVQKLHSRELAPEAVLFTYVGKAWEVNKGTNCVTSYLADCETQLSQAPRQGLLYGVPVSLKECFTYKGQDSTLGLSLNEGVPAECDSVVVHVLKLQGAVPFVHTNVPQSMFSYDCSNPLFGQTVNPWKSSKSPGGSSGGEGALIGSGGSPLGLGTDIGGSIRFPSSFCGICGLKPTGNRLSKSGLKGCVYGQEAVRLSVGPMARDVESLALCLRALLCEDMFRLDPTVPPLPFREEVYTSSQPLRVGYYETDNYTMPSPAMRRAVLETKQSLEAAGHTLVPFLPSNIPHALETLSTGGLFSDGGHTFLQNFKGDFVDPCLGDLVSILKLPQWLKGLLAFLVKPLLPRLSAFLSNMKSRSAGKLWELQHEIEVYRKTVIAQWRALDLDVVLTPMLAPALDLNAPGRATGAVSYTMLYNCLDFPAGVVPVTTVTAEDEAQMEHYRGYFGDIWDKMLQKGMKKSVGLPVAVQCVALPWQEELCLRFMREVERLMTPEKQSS
Test: Inhibition of human FAAH expressed in CHO cell lysates assessed as arachidonyl-7-amino-4-methylcoumarin amide hydrolysis to 7-amino 4-methyl coumarin preincubated for 15 mins prior to substrate addition measured after 1 to 3 hrs by fluorescence assay
Note to self: IC50 under 10 nM means 1.0, ties and anything higher get 0.0.

>  <chem.smiles>
CN(C)C(=O)[C@H]1C[C@@H]1c1ccc(-c2nc(C3CC3)n(C)c2Sc2ccc(Cl)cn2)cc1

>  <target.desc>
Fatty-acid amide hydrolase 1 (Homo sapiens, UniProt O00519)

>  <class.name>
0.0

$$$$
>  <chem.smiles>
Cn1cnc(-c2ccc([C@H]3C[C@@H]3C(N)=O)cc2)c1Sc1ccc(Cl)cc1

>  <target.desc>
Fatty-acid amide hydrolase 1 (Homo sapiens, UniProt O00519)

>  <class.name>
1.0

$$$$
>  <chem.smiles>
Cn1cnc(-c2ccc([C@H]3C[C@@H]3C(=O)NCCF)cc2)c1Sc1ccc(Cl)cc1

>  <target.desc>
Fatty-acid amide hydrolase 1 (Homo sapiens, UniProt O00519)

>  <class.name>
1.0

$$$$

Please indicate whether the reported IC50 of CN(C)C(=O)[C@H]1C[C@@H]1c1ccc(-c2c(Sc3ccc(Cl)cn3)ncn2C)cc1 is strictly below 10 nM.
0.0

Decide: IC50 of CNC(=O)[C@H]1C[C@@H]1c1ccc(-c2ncn(C)c2Sc2ccc(Cl)cc2)cc1 strictly below 10 nM?
1.0

Does the reported IC50 of the following molecule sit strictly below 10 nM? Cc1nc(-c2ccc([C@H]3C[C@@H]3C(=O)N(C)C)cc2)c(Sc2ccc(Cl)cn2)n1C
0.0

Hello, is IC50 of the following molecule strictly smaller than 10 nM? NC(=O)[C@H]1C[C@@H]1c1ccc(-c2nn(C3CC3)cc2Sc2ccc(Cl)cc2)cc1
1.0

Is it true that IC50 reported for [11CH3]n1cc(Sc2ccc(Cl)cc2)c(-c2ccc3ccc(C(N)=O)nc3c2)n1 is less than 10 nM?
1.0

Determine whether this molecule shows IC50 lower than 10 nM (ties excluded): CN(CCF)C(=O)[C@H]1C[C@@H]1c1ccc(-c2ncn(C)c2Sc2ccc(Cl)cc2)cc1
1.0
